Target desc: KCNH2 (hERG) mutant, Kv11.1 potassium ion channel (Homo sapiens, UniProt Q12809, form not given)
Assay overview: in vitro
Parameter: EC50 (mM)
Write it as a number; the unit mM goes unstated.

**Query** I have this compound here, O=C(CCCN1CCC(O)(c2ccc(Cl)cc2)CC1)c1ccc(F)cc1 [Haloperidol] , and I need its recorded EC50.
**Result** 15.3
